measured_on: EGFR T790M, L858R (amino acids 669-1011) (Homo sapiens, UniProt P00533, L858R/T790M)
Sequence (P00533 669-1011 T790M/L858R): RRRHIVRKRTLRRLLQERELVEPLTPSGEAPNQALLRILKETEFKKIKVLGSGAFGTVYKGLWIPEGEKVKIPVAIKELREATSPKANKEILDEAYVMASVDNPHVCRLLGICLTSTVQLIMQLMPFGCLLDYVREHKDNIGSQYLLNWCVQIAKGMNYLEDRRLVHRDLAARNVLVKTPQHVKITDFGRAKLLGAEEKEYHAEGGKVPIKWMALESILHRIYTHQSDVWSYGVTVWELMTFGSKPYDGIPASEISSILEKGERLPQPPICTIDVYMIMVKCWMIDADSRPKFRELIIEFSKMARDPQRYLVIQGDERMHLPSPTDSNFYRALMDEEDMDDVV
assay_details: KdELECT binding assay, EGFR T790M, L858R
I'd be grateful if you could share measured Kd for these entries.

Give reported Kd value for C=C(COC(=O)N1CCN(c2nc(NCc3nc4cc(C)ccc4[nH]3)n3ncc(Br)c3n2)CC1)C(=O)N[C@@H]1CN(c2nc(Nc3cn(C)nc3OC)c3ncn(C)c3n2)C[C@H]1F [II-184]
50 to 500 nM

State its Kd for this molecule: C=C(CN(C(=O)NCc1ccc2c(c1)CN(C1CCC(=O)NC1=O)C2=O)c1ccc(C)c(Cl)c1)C(=O)N[C@@H]1CN(c2nc(Nc3cn(C)nc3OC)c3ncn(C)c3n2)C[C@H]1F (stereo partly shown) [Compound I-41]
> 2500 nM

Give me measured Kd, please, for this molecule: C=C(COc1cc(Cl)cc(NC(=O)NCc2ccc3c(c2)CN(C2CCC(=O)NC2=O)C3=O)c1)C(=O)Nc1cccc(-c2cccc3cnc(Nc4ccc(N5CCN(CCO)CC5)c(F)c4F)nc23)c1 (stereo not shown) [Compound I-61]
50 to 500 nM

Provide only the value of recorded Kd for C=C(COc1cc(-c2ccccn2)ccc1CNc1nc(N[C@H](CC)CO)nc2c1ncn2C(C)C)C(=O)N[C@@H]1CN(c2nc(Nc3cn(C)nc3OC)c3ncn(C)c3n2)C[C@H]1F [II-183]
50 to 500 nM

Using the record for C=C(Cn1c(CNc2nc(N3CCN(C)CC3)nc3c(Br)cnn23)nc2c(F)c(F)ccc21)C(=O)N[C@@H]1CN(c2nc(Nc3cn(C)nc3OC)c3ncn(C)c3n2)C[C@H]1F [II-182] , state its measured Kd.
> 2500 nM

Write down Kd measured for item C=C(COc1cc(Cl)cc(NC(=O)NCc2ccc3c(c2)CN(C2CCC(=O)NC2=O)C3=O)c1)C(=O)Nc1cccc(Oc2nc(Nc3ccc(N4CCN(C)CC4)cc3)nc3ccsc23)c1 (stereo not shown) [Compound I-55]
500 to 2500 nM

Tell me Kd reported for C=C(CN1CCN(c2nc(NCc3nc4cc(C)ccc4[nH]3)n3ncc(Br)c3n2)CC1)C(=O)Nc1cc(Nc2nccc(-c3cn(C)c4ccccc34)n2)c(OC)cc1N(C)CCN(C)C [II-188]
< 50 nM

Identify the reported Kd for the following entry. C=C(COC(=O)n1c(CNc2nc(N3CCNCC3)nc3c(Br)cnn23)nc2cc(C)ccc21)C(=O)N1C[C@H](COc2nc(Nc3cnn(C)c3)nc3[nH]cc(Cl)c23)[C@@H](OC)C1 [Compound V-4]
> 2500 nM

Please give the documented Kd of C=C(COc1ccc(Cl)cc1NC(=O)NCc1ccc2c(c1)CN(C1CCC(=O)NC1=O)C2=O)C(=O)N[C@@H]1CN(c2nc(Nc3cn(C)nc3OC)c3ncn(C)c3n2)C[C@H]1F (stereo partly shown) [Compound I-47]
< 50 nM

Kindly indicate its recorded Kd. Item: C=C(COc1cc(Cl)cc(NC(=O)NCc2ccc3c(c2)CN(C2CCC(=O)NC2=O)C3=O)c1)C(=O)Nc1cc(Nc2nccc(-c3cn(C)c4ccccc34)n2)c(OC)cc1N(C)CCN(C)C (stereo not shown) [Compound I-59]
< 50 nM

----------
pKd: −log10 of the molar value.
measurement_kind: pKd

GET pKd | system: EGFR WT (amino acids 669-1011) (Homo sapiens, UniProt P00533) | item: C=C(COc1ccc(Cl)cc1NC(=O)NCc1ccc2c(c1)CN(C1CCC(=O)NC1=O)C2=O)C(=O)N[C@@H]1CN(c2nc(Nc3cn(C)nc3OC)c3ncn(C)c3n2)C[C@H]1F (some centres unmarked)
> 7.30

Name the value of pKd reported for `C=C(CN1CCN(c2nc(NCc3nc4cc(C)ccc4[nH]3)n3ncc(Br)c3n2)CC1)C(=O)Nc1cccc(-c2cccc3cnc(Nc4ccc(N5CCN(CCO)CC5)c(F)c4F)nc23)c1` when tested on EGFR WT (amino acids 669-1011) (Homo sapiens, UniProt P00533).
Sequence (P00533 669-1011): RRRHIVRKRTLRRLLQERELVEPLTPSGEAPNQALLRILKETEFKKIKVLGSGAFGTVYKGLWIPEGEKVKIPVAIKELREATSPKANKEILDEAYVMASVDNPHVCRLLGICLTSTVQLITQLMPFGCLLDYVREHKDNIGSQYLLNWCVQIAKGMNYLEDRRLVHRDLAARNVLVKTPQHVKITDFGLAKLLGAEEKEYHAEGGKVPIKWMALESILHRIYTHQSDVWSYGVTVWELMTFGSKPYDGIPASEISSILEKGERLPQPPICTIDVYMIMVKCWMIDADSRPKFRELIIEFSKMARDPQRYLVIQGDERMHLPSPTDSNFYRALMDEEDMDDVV
< 5.60

Please report pKd with EGFR WT (amino acids 669-1011) (Homo sapiens, UniProt P00533) for item `C=C(Cn1c(CNc2nc(N3CCN(C)CC3)nc3c(Br)cnn23)nc2c(F)c(F)ccc21)C(=O)N[C@@H]1CN(c2nc(Nc3cn(C)nc3OC)c3ncn(C)c3n2)C[C@H]1F` .
< 5.60

Tell me pKd of `C=C(COC(=O)N1CCN(c2nc(NCc3nc4cc(C)ccc4[nH]3)n3ncc(Br)c3n2)CC1)C(=O)N1C[C@H](COc2nc(Nc3cnn(C)c3)nc3[nH]cc(Cl)c23)[C@@H](OC)C1` when tested on EGFR WT (amino acids 669-1011) (Homo sapiens, UniProt P00533).
< 5.60

Supply pKd measured with EGFR WT (amino acids 669-1011) (Homo sapiens, UniProt P00533) for `C=C(CN1CCN(c2nc(NCc3nc4cc(C)ccc4[nH]3)n3ncc(Br)c3n2)CC1)C(=O)Nc1cc(Nc2nccc(-c3cn(C)c4ccccc34)n2)c(OC)cc1N(C)CCN(C)C` .
> 7.30
